runDescription: melting temperature; fluorescence melt of hairpins on a sequencing array, two-state fit, raised by 9.35 °C to match UV melts
cond: sodium 0.088 M
assayReadout: Tm (°C)
All answers are understood in °C, so give the number only.

ACAAAGAAATTTGT (((((....))))): 22.5

Now consider a different sequence.
// Input: GTGAACGCGAAAGCGCAC (((..(((....)))))) . Output its Tm only. 42.3

* * *

runDescription: melting temperature; fluorescence melt of hairpins on a sequencing array, two-state fit, raised by 9.35 °C to match UV melts
cond: sodium 0.088 M
We use 50 °C as the dividing line for Tm: on or above the line is fulfilled, below is not fulfilled.

Record excerpt, results attached:
GCAACGCGAAAGCATTGC ((((.((....)).)))): fulfilled
GCACTCGAAAGAGGCTGC ((((((....)))..))): fulfilled
GCGCGGGGAAACCCGCAC (.(((((....))))).): fulfilled

Please find the next sequence below.
Would you say GACACCGAAAGGTAAGTC ((((((....)))..))) shows Tm at minimum 50 °C? not fulfilled
